# cAMP Rel EC50, nM (in the presence of 1% HSA) listing for each entry below
biological target: hGLP-1R (Homo sapiens, UniProt P43220); assay: cell-based or functional assay
Sequence (P43220 24-463): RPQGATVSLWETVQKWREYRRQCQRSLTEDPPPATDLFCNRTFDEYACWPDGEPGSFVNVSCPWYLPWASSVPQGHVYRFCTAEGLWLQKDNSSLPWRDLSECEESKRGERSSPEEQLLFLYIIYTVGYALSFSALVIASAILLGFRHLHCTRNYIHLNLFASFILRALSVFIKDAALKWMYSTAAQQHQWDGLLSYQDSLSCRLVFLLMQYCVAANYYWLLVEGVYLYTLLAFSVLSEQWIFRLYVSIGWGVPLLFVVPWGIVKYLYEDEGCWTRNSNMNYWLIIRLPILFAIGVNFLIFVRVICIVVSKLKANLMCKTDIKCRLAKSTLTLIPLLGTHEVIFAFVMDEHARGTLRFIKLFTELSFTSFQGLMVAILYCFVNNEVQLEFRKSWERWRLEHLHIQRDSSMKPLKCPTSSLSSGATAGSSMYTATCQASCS
Starred links: 1 amine or outer side, 2 acyl side, 3 side chain; linkers in the order of their positions; H or OH if unused. Non-standard residues stand in square brackets, D forms with d. Groups on a side chain read outwards from the residue. No end group written: not given here. *: point of attachment. C18 diacid = O=C(O)CCCCCCCCCCCCCCCCC(=O)*; γGlu = O=C(O)[C@H](CCC(=O)[*:2])N[*:1]; αMeL = CC(C)C[C@](C)(N)C(=O)O; Dap = NC[C@H](N)C(=O)O; AEEA = NCCOCCOCC(=O)O; Aib = CC(C)(N)C(=O)O
// return numeric value only (unit: nM, not printed)

For orientation, consider the following solved cases.
binder	quantitative result
YXQGTFTSDFSXXLDKKAQXAFIEYLLAGGPSSGAPPPSEG (synthetic construct; SITE 2: note = 2-Aminoisobutyric Acid; SITE 12: note = L-ornithine; SITE 13: note = alpha-methyl-leucine; SITE 17: note = Lysine is chemically modified through conjugation of the epsilon-amino group of the Lysine side chain with (2-[2-(2-Amino-ethoxy)-ethoxy]-acetyl)-(gamma-Glu)) [Example 60]	409
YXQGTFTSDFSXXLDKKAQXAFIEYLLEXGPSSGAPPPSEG (synthetic construct; SITE 2: note = 2-Aminoisobutyric Acid; SITE 12: note = L-ornithine; SITE 13: note = alpha-methyl-leucine; SITE 17: note = Lysine is chemically modified through conjugation of the epsilon-amino group of the Lysine side chain with (2-[2-(2-Amino-ethoxy)-ethoxy]-acetyl)-(gamma-Glu)) [Example 61]	704

Okay, next one:
### Prompt Requested field: cAMP Rel EC50, nM (in the presence of 1% HSA). Item: Y[Aib]QGTFTSDFS[Dap][αMeL]LDKK([AEEA-γGlu-C18 diacid])AQ[Aib]AFIEYLLE[Aib]GPSSGAPPPSGS-NH2 (ends and bridges not checked) [Example 134]
### Response 549
